Target: glucokinase (GK) (Homo sapiens)
Construct: I.D. No. 1 corresponds to residues 12-465 of glucokinase
Sequence (P35557 with tags, fused parts or gaps isoform P35557-2): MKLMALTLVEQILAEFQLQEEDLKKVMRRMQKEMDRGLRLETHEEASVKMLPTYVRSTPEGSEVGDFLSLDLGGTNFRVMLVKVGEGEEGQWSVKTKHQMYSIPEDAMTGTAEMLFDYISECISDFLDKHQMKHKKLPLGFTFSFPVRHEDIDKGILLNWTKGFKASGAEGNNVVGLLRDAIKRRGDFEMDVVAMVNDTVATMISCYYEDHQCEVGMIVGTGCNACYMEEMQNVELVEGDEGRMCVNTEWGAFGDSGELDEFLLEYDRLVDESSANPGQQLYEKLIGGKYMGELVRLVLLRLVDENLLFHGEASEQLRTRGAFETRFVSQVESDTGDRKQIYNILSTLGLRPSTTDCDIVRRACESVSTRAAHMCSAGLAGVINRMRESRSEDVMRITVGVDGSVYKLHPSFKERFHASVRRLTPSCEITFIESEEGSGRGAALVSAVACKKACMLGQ
Test: enzymatic glucokinase activity assay (ATP consumption, KinaseGlo luminescence)
Details: recombinant GK residues 12-465; 5 μM ATP, 5 mM Glucose; Kact = concentration that displays 50% of the maximal increase in GK activity; read-out: pKact
Counter-ions that a name gives are not always drawn.
readout: EC50

Example entries begin here.
molecule=CS(=O)(=O)c1ccn([C@@H](CC2CCOCC2)C(=O)Nc2ncc(Cl)s2)c(=O)c1 recorded_measurement="1.58 to 15.8 µM"
molecule="COc1cc(C)n(C(CC2CCCCC2)C(=O)Nc2nccs2)c(=O)c1 (stereo not shown) [Example 2, trifluoroacetic acid salt]" recorded_measurement="> 15.8 µM"
molecule=Cc1cc(-c2cc3ccccc3s2)cc(=O)n1[C@@H](CC1CCCCC1)C(=O)Nc1nccs1 recorded_measurement="> 15.8 µM"

Here's the next entry for you.
### Prompt Any idea what EC50 was measured for `Cc1cc(S(=O)(=O)c2cccc(Cl)c2)cc(=O)n1[C@H](CC1CCOCC1)C(=O)Nc1ncc(F)s1` ?
### Response > 15.8 µM

Reference source: patent US8163779B2
